The reported numbers originate from ChEMBL document CHEMBL1151006.

Measurement notes: Half life in rats after intravenous administration
Assay type: ADME, organism-based
Conditions used: rat, in vivo
Quantity measured: half-life (min)

I. O=C(c1ccccc1)c1cccc(NC(=O)[C@H]2OC(=O)N3[C@@H](c4cccnc4)SC[C@@H]23)c1
II. O=C(c1ccccc1)c1cccc(NC(=O)[C@@H]2CSC(c3cccnc3)N2)c1 (some centres not stated)
Prompt: Lab notebook, comparison: I versus II , higher half-life goes to which? Bench note: the answer is the label of the chosen record.
Completion: II
(II: 60 min, I: 42 min)
